System: HS 578T breast
Experiment: NCI-60 one-dose screen, 48 h (100 = growth as untreated, 0 = no growth, -100 = all killed)
Details: 10 µM unless noted
About 83,000 compounds went through this panel and 20% of them were active in at least one assay; those are over-represented in the sample as a whole.
Listing: growth of selected compounds
Measured Endpoint: growth (%)

Compound	Experimental Value
CC(C)C(C)(C)c1ccc(O)cc1	114
Oc1ccc(Cc2ccccc2Cl)c(O)c1	94.4
N#CC(C#N)N=Nc1ccc(Cl)cc1	81.8
CC1(C)COC(=S)N1	106
N#CC(C#N)N=Nc1cc(Cl)ccc1Cl	116
Fc1ccc([I+]c2ccc(F)cc2)cc1	86.2
CC(=O)NCC(=O)c1ccc([N+](=O)[O-])cc1	106
COc1ccc(Nc2ccc3ccccc3c2)cc1	96.5
Cn1cnc([N+](=O)[O-])c1Sc1ncn[nH]1	119
O=C(Cc1ccccc1)c1ccc(O)c(Cl)c1	37.4
CC1CCC(C(C)C)C(NNC(N)=O)C1 (stereo unspecified)	91.6
O=C(O)CCCl	96.4
Cl	108
Brc1ccc(SSc2ccc(Br)cc2)cc1	96.9
O=CN1CCCCC1	114
C#CCOC(=O)Nc1ccccc1	105
